tested on: Human Simpson-Golabi-Behmel syndrome (SGBS) preadipocytes; assay: Brown cell differentiation of SGBS preadipocytes, high content imaging with anti-UCP1 and LipidTox staining; format: cell-based; settings: day 11, LipidTox and UCP1 positive, 2nd of 3 sub-columns, concentration not given
propertyMeasured: % Brown (adipocytes) (%)
Answers are plain numbers, in %.

Need % Brown (adipocytes) for each of these compounds.
1. Cc1ccc(NS(=O)(=O)c2ccc(-c3c(C)noc3C)cc2)cc1Cl
2. Cc1nc(-c2cc(S(=O)(=O)N3CCC(C(=O)NCCc4cccs4)CC3)c(C)s2)no1

[22, 34]

----------
Exercise: for every item that follows, state its recorded % Brown (adipocytes).
system: Human Simpson-Golabi-Behmel syndrome (SGBS) preadipocytes; experiment: Brown cell differentiation of SGBS preadipocytes, high content imaging with anti-UCP1 and LipidTox staining; format: cell-based; conditions: day 11, LipidTox and UCP1 positive, 2nd of 3 sub-columns, concentration not given

Examples with answers:
INSERT INTO measurements (entrysmiles, propertymeasured, datavalue) VALUES
  ('Cc1sc(-c2noc(C(C)C)n2)cc1S(=O)(=O)N1CCC(C(=O)NCc2cccs2)CC1', '% Brown (adipocytes)', '22%'),
  ('Cc1ccc(CNC(=O)C2CCN(S(=O)(=O)c3cc(-c4noc(C5CC5)n4)sc3C)CC2)o1', '% Brown (adipocytes)', '27%'),
  ('Cc1ccc(C)c(-c2csc(Nc3ccc(S(=O)(=O)Nc4cc(C)on4)cc3)n2)c1', '% Brown (adipocytes)', '21%'),
  ('COC(=O)c1ccc(NS(=O)(=O)c2ccc(-c3c(C)noc3C)cc2)cc1', '% Brown (adipocytes)', '21%');

Quick request: % Brown (adipocytes) for each listed item, please.
1. Cc1nn(-c2ccccc2)c(C)c1S(=O)(=O)N1CCC(C(=O)NCCc2cccs2)CC1
2. Cc1sc(-c2noc(C(C)C)n2)cc1S(=O)(=O)N1CCC(C(=O)N(C)Cc2ccco2)CC1
3. Cc1sc(-c2noc(C3CCC3)n2)cc1S(=O)(=O)N1CCC(C(=O)NCc2ccco2)CC1

28%
23%
22%
